test: yeast display, Sf9 membrane polyspecificity reagent, FACS + sequencing; frameworks hold sequencing errors
endpoint label: polyreactivity (PSR sort gate)

# monomer sequence, endpoint label, reported
measured = [
    ("QVQLVESGVGLVQAGGRLRLSCAASGRIIYIYAMGWYRQAPGKERELVAAITASSGSTNYADSVKGRFTISRDNAKNTVYLQMNSLKPEDTAVYYCSAAPSRTLLRQTKYYYWGQGTQVTVSS", "polyreactivity (PSR sort gate)", "low polyreactivity"),
    ("QVQLVESGGGLVQAGGSLRLSCAASGSIFYYNAMGWSRQAPGKERELVAGIRRSGDSTYYADSVKGRFTISRDNAKNTVYLQMNSLKPEDTAVYYCAAYLYLEYYYWGQGTQVTVSS", "polyreactivity (PSR sort gate)", "low polyreactivity"),
]

----------
test: yeast display, Sf9 membrane polyspecificity reagent, FACS + sequencing; frameworks hold sequencing errors

# monomer sequence, polyreactivity (PSR sort gate)
rows = [
    ("QVQLVESVGGLVQAGGSLRLICAASGSTIFYNAMGWYRQAPGKERELVAAISWSGGRTYYADSVKGRFTISRDNAKNTVYLQMYRLKPEDNAVYYCNTVVSKYYKVGFGSWGQGTQVTVSS", "high polyreactivity"),
    ("QVQLVESGGRLVQAGGSLRLTCAASGSTFTTYAMGWSRQAPGKERELVAAITSGSSTNYADSVKGRFTISRDNAKNTVYLQMNSLKPEDTAVYYCAVDREWPGYYYAISKMYYWGQGTQVTVSS", "low polyreactivity"),
    ("QVQLVESGGGLVQAGGSLRLSCAASGRTFLPNAMGWYRQAPGKERELVAVITSGGSTNYADSVKGRFTISRDNAKNTVYLQMNSLKPEDTAVYYCAARRWSSSQGHWGKSAGYGYLGQGTQVTVSS", "low polyreactivity"),
    ("QVQLVESGGGLVQAGGSLRLSCAASGSTFPKYAMGWYRQAPGKERELVAAISWSGDSTYYADSVKGRFTISRDNAKNSVYLQMNSLNPEDTAVYYCAAYNFIHAGPWEYDYWGQGTQVSVSS", "low polyreactivity"),
    ("QVQMQESGGGLVQAGGSLRLICAASGTILYSLGMGWYRQATGKRREFVASITWGTTTNYAERVKGRFTISSDNAKNTVYPKIISLKPEVTAVYYCASPPFGDSSFHYWGQGTQVTVSS", "low polyreactivity"),
    ("QVQLVESGGGLVQAGGSLRLSCAASGFILYDNTMGWYRQAPGKEREFVAAIRDSGGSTYYADSVKGRFTISRDNAKNTVYLQMNSLKPEDTAVYYCNTYGSGTHSTGYDYWGQGTQVTVSS", "low polyreactivity"),
    ("QVQLVESGGGLVQAGGSLRLSCAASGSTFYKYGMGWYRPAPGKERELVAAISGSGDSTYYADSVKGRFTISRDNAKNTVYLQMNSLKPEDTAVYYCNAGPWWYLHEYDYWGQGTQVTVSS", "low polyreactivity"),
    ("LVQLQDSGDGLVQAGGSLRLSCAASGNIFDADIKGWYRQAPGKERELVASIGIGGTTYYADSVKGRFSISRDNEKNTVYLQMNSLKPEDTAVYYCAARYLYYAYSYWGQGTQVTVSS", "low polyreactivity"),
    ("QVQLVESGGGLVQAGGSLRLSCAASGSTIRTNTMGWYRQAPGKERELVAAITKSGGSTYYADSVKGRFTISRDNAKNTVYLQMNSLKPEDTAVYYCAARVLYRSGLRGDYWGQGTQVTVSS", "high polyreactivity"),
    ("QVQLVDSGGGLVQAGGSLRLSCAASGSILLYYTMGWYRPAPGKERELVATMSSSGGSTYYADSVKGRFTISRDNAKNTVYLQMNSLKPEDTAVYYCNADYIYYGTTYEYWGQGTQVTVSS", "low polyreactivity"),
    ("QVQLVESGGGLVQAGGSLRLSCAASGSTFQYNAMGWYRQAPGKERELVAAISLSGGSTYYADSVKGRFTISRDNAKNTVYLQMNSLKPEDTAVYYCATEYYVYDYYYWAWYGYEYWGQGTQVTVSS", "high polyreactivity"),
    ("QVQLVESGGGLVQAGGSLRLSCAASGSTFDRYTLGWYRQAPGKERELVAGISNSGGSTYYADSVKGRFTISRDNAKNTVYLQMNSLKPEDTAVYYCAAAYSIRRILYYYWGQGTHVTVSS", "high polyreactivity"),
    ("QVQLVESGGGLVHAGGSLRLSCAASGGTFVYNAMGWYRQAPGKERELVAVISKRGGSTYYADSVKGRFTISRDNAKNTVYLEMISLKPEDTAVYYCAVSYRSFRYYWERYYSWGQGTQVTVSS", "high polyreactivity"),
    ("QVQLVESGGGLLQAGGSLRLSCAASGPTFAYYAMGWYRQATGKERELVAAIDSSGGSTYYADSVKGRFTISRDNSNNSVYLQMNSLKPEDTAVNYCAASYPYDRYDQGGFGYWGQGTQVTVSS", "low polyreactivity"),
]

// provenance: the nanobody polyreactivity screen of Harvey et al. (2022)
